Values compiled from PubChem BioAssay (NCI).

compounds and their reported TGI
- Tested on: CCRF-CEM leukemia
- protocol_notes: NCI tumour cell line growth inhibition, 48 h

>  <compound>
c1ccc2c(Nc3ncco3)cccc2c1

>  <TGI>
> 10 µM

$$$$
>  <compound>
CC(C)(C)c1cc(OCc2nnc3sc(Cc4ccccc4)nn23)c(Cl)cc1OCc1nnc2sc(Cc3ccccc3)nn12

>  <TGI>
8.97 µM

$$$$
>  <compound>
COC(=O)C1C(=O)CC(C)(O)C(C(=O)OC)C1c1ccc(N(C)C)cc1 (stereo unspecified)

>  <TGI>
> 100 µM

$$$$
>  <compound>
COC(=O)c1c2c(cc3c1CC1(Cc4cc5c(c(C)c4C1)CCC5)C3)CCC2 (stereo unspecified)

>  <TGI>
> 100 µM

$$$$
>  <compound>
C/C(=C\Cc1ccc(F)cc1)CCCCCC/C(C)=C/Cc1ccc(F)cc1

>  <TGI>
42.6 µM

$$$$
>  <compound>
Cc1nc(C)c(N2CCN(CN)CC2)c(=O)[nH]1

>  <TGI>
> 100 µM

$$$$
